meta.source: paper PMC7604414

experiment: Favipiravir plasma trough concentrations in hamsters; format: in vivo, Syrian hamsters; details: female, hamster, plasma, intraperitoneal, 1000 mg/kg/d; favipiravir 1,000 mg/kg/d i.p. BID for 4 d, 16 h after last treatment; read-out: plasma trough level
quantity: concentration at 16 h after last treatment (ng/mL)

In [3]: df
Out[3]:
          smilesstructure  reportedmeasurement
0  NC(=O)c1nc(F)c[nH]c1=O                 4400

---

assay: Favipiravir plasma trough concentrations in hamsters; type: in vivo, Syrian hamsters; details: female, hamster, plasma; favipiravir 300 mg/kg/d oral BID for 4 d, 16 h after last treatment; read-out: average plasma trough concentration
quantity: concentration at 16 h after last treatment (ng/mL)

>>> print(df.to_string())
          smilesstructure  reportedmeasurement
0  NC(=O)c1nc(F)c[nH]c1=O                  200
